- Tested on: A/Hong Kong/8/68 (H3N2, HK)
- ASSAY_PROTOCOL: microbe, parasite or virus in culture
- STATED_CONDITIONS: Influenza A virus, H3N2, MDCK, 72 h, read-out: EC50 HK
# strict inequality: EC50 < 30 µg/mL yields T, everything else yields F

Determine if O=c1c(O)c(-c2ccc(O)c(O)c2)oc2cc(O)cc(O)c12 shows EC50 strictly lower than 30 µg/mL.
T

In plain terms, does CC[C@H](CC[C@@H](C)[C@H]1CC[C@H]2[C@@H]3CC=C4C[C@@H](O)CC[C@]4(C)[C@H]3CC[C@]12C)C(C)C come in under 30 µg/mL for EC50?
F

Strictly below 30 µg/mL: is that where EC50 of COC(=O)c1cc(O)c(O)c(O)c1 [PC7, Methyl gallate] sits?
T

Check if EC50 falls below 30 µg/mL for O=c1oc2c(O)c(O)cc3c(=O)oc4c(O)c(O)cc1c4c23 .
F

Does the reported EC50 of O=C(O)/C=C/c1ccc(O)c(O)c1 stay below 30 µg/mL?
F

Decide: EC50 of O=C(O)c1cc(O)c(O)c(O)c1 strictly below 30 µg/mL?
T

====

- Test system: A/Puerto Rico/8/34 (H1N1, PR8)
- ASSAY_PROTOCOL: microbe, parasite or virus in culture
- STATED_CONDITIONS: Influenza A virus, MDCK, 72 h, read-out: EC50 PR8
Binarize EC50 at 20 µg/mL; below is rule met, at or above is rule not met.

Please determine if COC(=O)c1ccc(O)c(O)c1 [PC2, Protocatechuic acid methyl ester] is below 20 µg/mL in terms of EC50.
rule not met

Determine if CC[C@H](CC[C@@H](C)[C@H]1CC[C@H]2[C@@H]3CC=C4C[C@@H](O)CC[C@]4(C)[C@H]3CC[C@]12C)C(C)C [PC6, β-Sitosterol] shows EC50 strictly lower than 20 µg/mL.
rule not met

Regarding O=c1c(O)c(-c2ccc(O)c(O)c2)oc2cc(O)cc(O)c12 [PC1, Quercetin] , kindly confirm whether its EC50 is beneath 20 µg/mL.
rule met

Item O=C(O)/C=C/c1ccc(O)c(O)c1 [PC8, Caffeic acid] : EC50 beneath 20 µg/mL, strictly?
rule not met

Would you kindly verify if EC50 of O=c1oc2c(O)c(O)cc3c(=O)oc4c(O)c(O)cc1c4c23 [PC5, Ellagic acid] is strictly less than 20 µg/mL?
rule not met

Please let me know if COC(=O)c1cc(O)c(O)c(O)c1 [PC7, Methyl gallate] shows EC50 below 20 µg/mL.
rule met

====

Could you please report measured S.I. (CC50/EC50) Lee for the items listed next?
- System: B/Lee/40 (Lee)
- STATED_CONDITIONS: Table 2

Look up B/Lee/40 (Lee) data: S.I. (CC50/EC50) Lee of COC(=O)c1cc(O)c(O)c(O)c1 [PC7, Methyl gallate] , then report it.
> 15.6

For B/Lee/40 (Lee), give the measured S.I. (CC50/EC50) Lee of the entry O=c1oc2c(O)c(O)cc3c(=O)oc4c(O)c(O)cc1c4c23 [PC5, Ellagic acid]
> 3.8

State S.I. (CC50/EC50) Lee (B/Lee/40 (Lee)) of O=c1c(O)c(-c2ccc(O)c(O)c2)oc2cc(O)cc(O)c12 [PC1, Quercetin] .
> 20.0

# return S.I. (CC50/EC50) Lee for COC(=O)c1ccc(O)c(O)c1 [PC2, Protocatechuic acid methyl ester] , test system: B/Lee/40 (Lee)
2.2

Under B/Lee/40 (Lee): report S.I. (CC50/EC50) Lee of O=C(O)/C=C/c1ccc(O)c(O)c1 [PC8, Caffeic acid] .
> 20.4

====

- System: A/Puerto Rico/8/34 (H1N1, PR8)
- STATED_CONDITIONS: Table 2
PROPERTY_LABEL: S.I. (CC50/EC50) PR8

Give S.I. (CC50/EC50) PR8 for O=C(O)/C=C/c1ccc(O)c(O)c1
> 7.9

# return recorded S.I. (CC50/EC50) PR8 for entry O=c1oc2c(O)c(O)cc3c(=O)oc4c(O)c(O)cc1c4c23
> 3.7

Quote S.I. (CC50/EC50) PR8 reported for COC(=O)c1cc(O)c(O)c(O)c1 [PC7, Methyl gallate] please.
> 16.6

Assign S.I. (CC50/EC50) PR8 to the following record: CC[C@H](CC[C@@H](C)[C@H]1CC[C@H]2[C@@H]3CC=C4C[C@@H](O)CC[C@]4(C)[C@H]3CC[C@]12C)C(C)C
1.1

====

For each of the compounds below, state its S.I. (CC50/EC50) HK.
- System: A/Hong Kong/8/68 (H3N2, HK)
- STATED_CONDITIONS: Table 2

Provide measured S.I. (CC50/EC50) HK value, entry: COC(=O)c1cc(O)c(O)c(O)c1 [PC7, Methyl gallate]
> 17.5

Give the reported S.I. (CC50/EC50) HK for this compound. O=C(O)/C=C/c1ccc(O)c(O)c1
> 9.4

Supply S.I. (CC50/EC50) HK value. Item: CC[C@H](CC[C@@H](C)[C@H]1CC[C@H]2[C@@H]3CC=C4C[C@@H](O)CC[C@]4(C)[C@H]3CC[C@]12C)C(C)C
1.0

Given O=c1oc2c(O)c(O)cc3c(=O)oc4c(O)c(O)cc1c4c23 , respond with its S.I. (CC50/EC50) HK.
> 4.8

Give S.I. (CC50/EC50) HK for O=c1c(O)c(-c2ccc(O)c(O)c2)oc2cc(O)cc(O)c12
> 22.9

====

- ASSAY_PROTOCOL: in vitro
- STATED_CONDITIONS: dog
PROPERTY_LABEL: CC50 (µg/mL)
# value in µg/mL; strip the unit string

Using the record for O=C(O)c1cc(O)c(O)c(O)c1 , state its measured CC50.
111

Kindly indicate its recorded CC50. Item: CC[C@H](CC[C@@H](C)[C@H]1CC[C@H]2[C@@H]3CC=C4C[C@@H](O)CC[C@]4(C)[C@H]3CC[C@]12C)C(C)C
300

====

Provide the reported EC50 of each item.
- System: A/Hong Kong/8/68 (H3N2, HK)
- ASSAY_PROTOCOL: microbe, parasite or virus in culture
- STATED_CONDITIONS: Influenza A virus, H3N2, MDCK, 72 h, read-out: EC50 HK
API: value field is a number in µM; no unit string.

Provide measured EC50 value, entry: CCC(CC)O[C@@H]1C=C(C(=O)O)C[C@H](N)[C@H]1NC(C)=O [OSV-C, oseltamivir carboxylate, reference compound]
0.005

Identify the reported EC50 for the following entry. NC(=O)c1ncn([C@@H]2O[C@H](CO)[C@@H](O)[C@H]2O)n1 [RBV, ribavirin, reference compound]
20.5
